Test: HD-MB03 medulloblastoma cell growth inhibition, synergistic combos for chromothripsis tumors, BGB or cisplatin IC20 combos (AID 1671455);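 also: 0% = vehicle DMSO and 100% = high DMSO as cytotoxic control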
Conditions: HD-MB03 medulloblastoma cells, measured here: combo with cisplatin at IC20, at 0.5 µM, stronger effect = higher value
Listed below: inhibition values for each entry.
measurement-type: inhibition (%)

> print(dat)
                                   molecule  result.units  measurement
1            O=C(O)CCCc1ccc(N(CCCl)CCCl)cc1             %        0.904
2                        O=P(O)(NCCCl)NCCCl             %        -18.9
3  O=C1CCC[C@@H]2[C@H]3CCCN4CCC[C@@H](CN12)[C@@H]34             %        -1.67
4  COc1cc(C2c3cc4c(cc3C(O)C3COC(=O)C23)OCO4)cc(OC)c1OC (stereo unspecified)             %         76.1
5            CCC1(c2ccccc2)C(=O)NC(=O)NC1=O             %        -10.5
6    Cn1c(CCCC(=O)O)nc2cc(N(CCCl)CCCl)ccc21             %        -20.4

###

Test: inhibitors of polyQ protein aggregation (AID 1604)
Conditions: polyglutamine-induced protein aggregation inhibition assay; stronger effect = higher value; concentration not given here
Assign YES to entries whose inhibition of aggregation meets or exceeds 70%; assign NO to the rest.

compound	assigned-class
CN1C2CCC1C(C(=O)O)C(OC(=O)c1ccccc1)C2 (stereo not given)	NO
O=C1CCCN1CC#CCN1CCCC1	YES
CC(C)[N+](C)(CCC(C(N)=O)(c1ccccc1)c1ccccc1)C(C)C	NO
CC1[C@H](C)OC(=O)CC(O)CC(O)CC(O)CCC(O)C(O)C[C@]2(O)CC(O)C(C(=O)O)C(CC(OC3O[C@H](C)[C@@H](O)[C@H](N)[C@@H]3O)/C=C/C=C/C=C/C=C/CC/C=C/C=C/[C@H](C)[C@H]1O)O2 (stereo not given in full)	NO
CC(C)=CCCC1(C)C=Cc2c(O)c3c(c(CC=C(C)C)c2O1)OC12C(=CC4CC1C(C)(C)OC2(C/C=C(/C)C(=O)O)C4=O)C3=O (stereo not given)	YES
NCCc1ccc(O)cc1	NO
C[C@H]1C(=O)O[C@@H]2CCN3CC=C(COC(=O)[C@](C)(O)[C@]1(C)O)[C@H]23	NO
C=CCC1(C(C)CCC)C(=O)N=C(S)NC1=O (stereo not given)	NO
CN1C(=O)CN=C(c2ccccc2)c2cc(Cl)ccc21	NO
ClC1=C(Cl)C2(Cl)C3C4CC(C5OC45)C3C1(Cl)C2(Cl)Cl (stereo not given)	YES
NC(=O)c1cc([N+](=O)[O-])cc([N+](=O)[O-])c1	YES
O=C(CCCN1CCC2(CC1)C(=O)NCN2c1ccccc1)c1ccc(F)cc1	YES
CC[C@@]1(O)C[C@H](O[C@H]2C[C@H](N(C)C)[C@H](O)[C@H](C)O2)c2c(cc3c(c2O)C(=O)c2c(O)cccc2C3=O)[C@H]1C(=O)OC	YES
CC[N+]1(C)CCCC(OC(=O)C(O)(c2ccccc2)c2ccccc2)C1 (stereo not given)	YES
CCCC(C)C1(CC)C(=O)N=C(S)NC1=O (stereo not given)	NO
CN1C(=O)CN=C(c2ccccc2F)c2cc([N+](=O)[O-])ccc21	NO
CC(C)(C)NCC(O)c1ccccc1Cl (stereo not given)	YES
C[C@]12CCC(=O)C=C1CCC1C2CC[C@@]2(C)C1CC[C@@H]2O (stereo not given in full)	NO
